assay: Inhibition of human osteoblast growth at 25 uM after 48 hrs by MTT assay; type: cell-based; details: human osteoblasts
Recorded inhibition at 48 h, 25 µM, one value per entry.
readout: inhibition at 48 h, 25 µM

compound: CC(C)(C)n1nc(-c2ccc(Cl)cc2)c2c(N)ncnc21
measured-value: 50%

compound: CSc1nc(Nc2cccc(Cl)c2)c2cnn(CC(Cl)c3ccccc3)c2n1 (configuration not stated)
measured-value: 20%
